test method notes: refractive index (Na D-line) (dimensionless); xn = mol fraction of the nth substance listed
measurement context: 288.15 K; 101.32 kPa; Liquid; x2 = 0.6
± gives the expanded uncertainty stated by the source.
result type: refractive index

CCCCCl [1-chlorobutane] + CO
1.3759 ± 0.0006

For the 3 molecules below, give their refractive index values.
1. CCCCCl [1-chlorobutane] + CCO
2. CCCCCl [1-chlorobutane] + CCCO
3. CCCCCl [1-chlorobutane] + CCCCO

1: 1.3851 ± 0.0006; 2: 1.3952 ± 0.0006; 3: 1.4024 ± 0.0006

====

test method notes: xn = mol fraction of the nth substance listed
measurement context: 288.15 K; 101.32 kPa; Liquid; x2 = 0.9
result type: viscosity (mPa·s)
Numbers only, in mPa·s.

CCCCCl [1-chlorobutane] + CCCCO
2.601
CCCCCl [1-chlorobutane] + CO
0.601
CCCCCl [1-chlorobutane] + CCO
1.099

Switching to the query record.
Entry CCCCCl [1-chlorobutane] + CCCO needs its viscosity filled in; supply it.
1.94

====

test method notes: xn = mol fraction of the nth substance listed
measurement context: 308.15 K; 101.32 kPa; Liquid; x2 = 0.2
result type: mass density (kg/m3)
One number for each entry, in kg/m3.

For the 3 molecules below, give their mass density values.
1. CCCCCl [1-chlorobutane] + CCCCO
2. CCCCCl [1-chlorobutane] + CCCO
3. CCCCCl [1-chlorobutane] + CCO

[855.5, 856.2, 856.4]

Entry CCCCCl [1-chlorobutane] + CO needs its mass density filled in; supply it.
859.9

====

test method notes: refractive index (Na D-line) (dimensionless); xn = mol fraction of the nth substance listed
measurement context: 308.15 K; 101.32 kPa; Liquid; x2 = 0.1
Please provide measured refractive index for the entries that follow.
Answers are plain numbers.

Example molecules with recorded refractive index:
CCCCCl [1-chlorobutane] + CCCO
1.3923
CCCCCl [1-chlorobutane] + CCO
1.3912
CCCCCl [1-chlorobutane] + CCCCO
1.3934

Switching to the query record.
Entry CCCCCl [1-chlorobutane] + CO needs its refractive index filled in; supply it.
1.3912

====

test method notes: refractive index (Na D-line) (dimensionless); xn = mol fraction of the nth substance listed
measurement context: 308.15 K; 101.32 kPa; Liquid; x2 = 0.2
result type: refractive index
Numbers only.

CCCCCl [1-chlorobutane] + CCCCO
1.3932

For the 3 molecules below, give their refractive index values.
1. CCCCCl [1-chlorobutane] + CCCO
2. CCCCCl [1-chlorobutane] + CO
3. CCCCCl [1-chlorobutane] + CCO

1: 1.3909; 2: 1.3877; 3: 1.3885

====

test method notes: xn = mol fraction of the nth substance listed
measurement context: 298.15 K; 101.32 kPa; Liquid; x2 = 0.7
± gives the expanded uncertainty stated by the source.
result type: viscosity
Quick note: unit goes after the number.

CCCCCl [1-chlorobutane] + CCO
0.68 ± 0.01 mPa·s
CCCCCl [1-chlorobutane] + CCCO
0.977 ± 0.013 mPa·s
CCCCCl [1-chlorobutane] + CCCCO
1.221 ± 0.015 mPa·s

Switching to the query record.
Entry CCCCCl [1-chlorobutane] + CO needs its viscosity filled in; supply it.
0.489 ± 0.009 mPa·s

====

Please provide measured viscosity for the entries that follow.
test method notes: xn = mol fraction of the nth substance listed
measurement context: 288.15 K; 101.32 kPa; Liquid; x2 = 0.5
Numbers only, in mPa·s.

CCCCCl [1-chlorobutane] + CCO
0.63
CCCCCl [1-chlorobutane] + CCCO
0.795
CCCCCl [1-chlorobutane] + CO
0.516

Entry CCCCCl [1-chlorobutane] + CCCCO needs its viscosity filled in; supply it.
0.953

====

measurement context: 308.15 K; 101.32 kPa; Liquid
result type: viscosity (mPa·s)
Numbers only, in mPa·s.

Example compounds with recorded viscosity:
CCCO [propan-1-ol]
1.548
CCCCO [butan-1-ol]
2.019
CCO [ethanol]
0.902
CCCCCl [1-chlorobutane]
0.382

Entry CO [methanol] needs its viscosity filled in; supply it.
0.473
